Target: T1, Human Id2: Histidine (human, UniProt Q02363 1-134, limits assumed)
T1 construct: Fusion protein made in E. coli from vector pGW07; also called h-Id2: His; not shown: His tag
T1 sequence (looked up): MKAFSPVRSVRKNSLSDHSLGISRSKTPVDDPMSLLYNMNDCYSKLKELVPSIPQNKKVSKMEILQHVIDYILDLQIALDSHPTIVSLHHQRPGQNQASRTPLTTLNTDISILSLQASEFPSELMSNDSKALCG
Test: ELISA on coated wells, summary
observed property: Cross-reactivity (%)

Q) Return reported Cross-reactivity (%); argument: rabbit monoclonal anti-mouse/human Id3, clone #BCH-4/#6-1 (antibody, V domains shown, Rabbit IgG from a rabbit hybridoma; also called m/h Id3 MoAb 6-1) VH: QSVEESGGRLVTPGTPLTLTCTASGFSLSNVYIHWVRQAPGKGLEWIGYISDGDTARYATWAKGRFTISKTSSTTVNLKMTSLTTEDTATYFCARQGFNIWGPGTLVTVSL VL: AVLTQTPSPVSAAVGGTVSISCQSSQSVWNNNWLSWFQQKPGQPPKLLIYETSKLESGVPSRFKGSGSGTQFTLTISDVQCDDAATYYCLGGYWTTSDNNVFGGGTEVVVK
A) < 1%
